biological target: Voltage-gated potassium channel subunit beta-2 (Rattus norvegicus); assay: enhancers of rat Kvbeta2 NADPH turnover – biochemical, NADPH fluorescence, primary screen (AID 623); conditions: Recombinant KvBeta, NADPH fluorescence decrease slope, 10 min; at 10 µM; active compounds read low;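 further: fluorescence intensity change per second fitted from 20 to 320 s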
Let's look at some compounds and their measured NADPH fluorescence slope.
Please give only the number in your answer, with no unit.

Known results for compounds:
>>> print(df.to_string())
                                   compound  result_value
0  COC(=O)C1=C(C)Nc2ncnn2C1c1ccco1 (configuration not stated)        -6e-05
1           CCCN(CCC)c1nc2ccccc2n2c(C)nnc12      -3.2e-05
2  CCOC(=O)c1oc2ccccc2c1CSc1nnnn1-c1ccc(OC)cc1      -4.1e-05
3          C=CCNc1oc(-c2cccc3ccccc23)nc1C#N       1.5e-06
4        CCc1cc(C)cc(OCCNC(=O)c2ncn[nH]2)c1      -1.9e-06
5          O=C(Cc1ccccc1)Nc1nnc(-c2cccs2)s1      -1.2e-05

Please find the next compound below.
(Q) What NADPH fluorescence slope appears in the records for this compound with Voltage-gated potassium channel subunit beta-2 (Rattus norvegicus)? O=C(CC1Oc2ccccc2NC1=O)NCCCN1CCOCC1 (configuration not stated)
(A) -1.9e-05
